Overview of reported dTm across a group of compounds:
Target Or System: ~100 representative kinases (Homo sapiens, UniProt Q96PY6)
Construct: Recombinant protein kinase domains with a concentration of 2 μM
Sequence (Q96PY6 1-1258): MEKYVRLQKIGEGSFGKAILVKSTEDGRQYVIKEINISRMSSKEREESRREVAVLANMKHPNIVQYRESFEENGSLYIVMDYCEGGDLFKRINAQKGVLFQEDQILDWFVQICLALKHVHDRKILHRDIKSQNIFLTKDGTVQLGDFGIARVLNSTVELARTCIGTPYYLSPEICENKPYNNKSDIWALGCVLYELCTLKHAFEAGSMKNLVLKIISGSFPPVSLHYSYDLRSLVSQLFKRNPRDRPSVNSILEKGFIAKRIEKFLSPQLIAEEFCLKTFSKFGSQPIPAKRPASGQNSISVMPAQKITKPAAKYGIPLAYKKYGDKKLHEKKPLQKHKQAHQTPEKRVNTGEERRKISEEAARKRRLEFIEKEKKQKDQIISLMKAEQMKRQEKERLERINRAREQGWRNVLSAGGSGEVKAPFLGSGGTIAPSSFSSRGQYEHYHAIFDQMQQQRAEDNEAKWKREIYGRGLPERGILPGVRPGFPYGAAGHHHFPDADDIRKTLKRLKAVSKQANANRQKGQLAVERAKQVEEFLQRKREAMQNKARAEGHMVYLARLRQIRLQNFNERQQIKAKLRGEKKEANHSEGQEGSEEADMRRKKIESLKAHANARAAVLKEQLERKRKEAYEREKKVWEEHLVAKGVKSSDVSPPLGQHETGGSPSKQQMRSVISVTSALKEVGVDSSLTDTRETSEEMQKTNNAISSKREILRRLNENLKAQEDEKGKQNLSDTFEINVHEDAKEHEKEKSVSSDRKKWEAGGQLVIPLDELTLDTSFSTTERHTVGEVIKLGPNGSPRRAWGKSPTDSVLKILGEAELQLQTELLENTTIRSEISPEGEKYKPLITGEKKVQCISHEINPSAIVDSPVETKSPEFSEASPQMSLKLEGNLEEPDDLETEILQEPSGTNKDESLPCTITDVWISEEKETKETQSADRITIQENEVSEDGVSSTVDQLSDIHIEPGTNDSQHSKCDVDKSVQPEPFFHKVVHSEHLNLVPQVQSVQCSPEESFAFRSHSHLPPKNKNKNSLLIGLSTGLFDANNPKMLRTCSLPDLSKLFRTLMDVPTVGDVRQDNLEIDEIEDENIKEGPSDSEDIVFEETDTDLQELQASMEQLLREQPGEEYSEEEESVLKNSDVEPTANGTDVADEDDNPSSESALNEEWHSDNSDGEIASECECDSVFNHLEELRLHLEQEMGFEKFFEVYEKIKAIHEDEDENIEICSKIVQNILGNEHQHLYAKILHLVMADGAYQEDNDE
Method Notes: DSF 100 kinase selectivity screen;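 also: compound tested at 20 µM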
Format: binding
Reported Conditions: protein NEK1; average of three replicates
Return type: number; implicit unit K.

C[C@@H]1CN(c2cc(-c3n[nH]c4ccc(OC5(C)CC5)cc34)ncn2)C[C@H](C)O1
0.27

Would you mind telling me what dTm value was observed for Cc1ccc(NC(=O)C2(C(=O)Nc3cccc(-c4c[nH]c5ncnc(N6CCOCC6)c45)c3)CC2)cc1 ? 0.23

Repeat for the following compound: CNC(=O)c1cc(Oc2ccc(NC(=O)Nc3cc(C(C)(C)C)nn3-c3ccc4ncccc4c3)c(F)c2)ccn1 [Rebastinib, reference compound] 2.10

----------
Target Or System: ~100 representative kinases (Homo sapiens, UniProt Q14680)
Construct: Recombinant protein kinase domains with a concentration of 2 μM
Sequence (Q14680 whole entry, the tested form may be a part): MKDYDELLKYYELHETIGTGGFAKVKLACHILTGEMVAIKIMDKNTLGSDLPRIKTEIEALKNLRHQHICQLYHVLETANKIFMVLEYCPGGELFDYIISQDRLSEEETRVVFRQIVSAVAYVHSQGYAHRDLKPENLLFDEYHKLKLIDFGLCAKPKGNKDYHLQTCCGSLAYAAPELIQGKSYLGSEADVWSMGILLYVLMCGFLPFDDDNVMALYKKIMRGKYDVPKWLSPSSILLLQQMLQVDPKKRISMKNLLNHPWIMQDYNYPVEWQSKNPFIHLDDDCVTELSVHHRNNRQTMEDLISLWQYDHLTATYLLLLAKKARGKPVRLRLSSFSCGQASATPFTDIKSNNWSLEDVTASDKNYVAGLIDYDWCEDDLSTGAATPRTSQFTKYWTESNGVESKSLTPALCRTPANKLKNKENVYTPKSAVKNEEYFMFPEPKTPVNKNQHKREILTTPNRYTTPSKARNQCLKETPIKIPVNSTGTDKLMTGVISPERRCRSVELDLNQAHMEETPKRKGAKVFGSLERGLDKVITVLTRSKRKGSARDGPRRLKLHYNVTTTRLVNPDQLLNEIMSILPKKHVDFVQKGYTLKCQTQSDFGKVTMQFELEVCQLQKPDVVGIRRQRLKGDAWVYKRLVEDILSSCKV
Method Notes: DSF 100 kinase selectivity screen;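 also: compound tested at 20 µM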
Format: binding
Reported Conditions: protein MELK; average of three replicates
Measured Metric: dTm
Kindly report the value followed by its unit.

Recorded results for 3 compounds are shown here.
Cc1ccc(-n2nc(C(C)(C)C)cc2NC(=O)Nc2cccc(-c3c[nH]c4nc(Cl)nc(N5CCOCC5)c34)c2)cc1 [Compound 30]
2.91 K
Cc1cc(F)ccc1NC(=O)C1(C(=O)Nc2cccc(-c3c[nH]c4ncnc(N5CCOCC5)c34)c2)CC1 [Compound 24]
12.59 K
Cn1cc(-c2c[nH]c3ncnc(N4CCOCC4)c23)cc1C#N [PFE-360]
5.72 K

// query dTm value for entry O=C(Nc1ccc(Cl)cc1)C1(C(=O)Nc2cccc(-c3c[nH]c4ncnc(N5CCOCC5)c34)c2)CC1 [Compound 13] 15.01 K

Next entry: O=C(Nc1cccc(-c2c[nH]c3ncnc(N4CCOCC4)c23)c1)c1cccn(-c2ccc(F)cc2)c1=O [Compound 4] 12.90 K

Follow-up item: Cc1cc(NC(=O)C2(C(=O)Nc3ccc(F)cc3)CC2)cc(-c2c[nH]c3ncnc(N4CCOCC4)c23)c1 [Compound 6] 11.24 K

Then O=C(Nc1cccc(-c2c[nH]c3ncnc(N4CCOCC4)c23)c1)C1(C(=O)Nc2ccc(F)c(Br)c2F)CC1 [Compound 26] ? 13.99 K

Now consider CCc1ccc(NC(=O)C2(C(=O)Nc3cccc(-c4c[nH]c5ncnc(N6CCOCC6)c45)c3)CC2)cc1 [Compound 15] and answer again. 6.77 K

Try O=C(Nc1cccc(-c2c[nH]c3ncnc(N4CCOCC4)c23)c1)C1(C(=O)Nc2cc(Br)c(F)cc2F)CC1 [Compound 25] next. 14.53 K

How about CNC(=O)c1cc(Oc2ccc(NC(=O)Nc3cc(C(C)(C)C)nn3-c3ccc4ncccc4c3)c(F)c2)ccn1 [Rebastinib, reference compound] ? 0.63 K

----------
Target Or System: ~100 representative kinases (Homo sapiens)
Construct: Recombinant protein kinase domains with a concentration of 2 μM
Method Notes: DSF 100 kinase selectivity screen;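 also: compound tested at 20 µM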
Format: binding
Reported Conditions: protein NEK2; average of three replicates
Measured Metric: dTm (K)
Please state the figure in K; there is no need to write the unit.

Below, 3 compounds whose answers are already recorded.
O=C(Nc1ccc(Cl)cc1)C1(C(=O)Nc2cccc(-c3c[nH]c4ncnc(N5CCOCC5)c34)c2)CC1 [Compound 13]
2.76
CNC(=O)c1cc(Oc2ccc(NC(=O)Nc3cc(C(C)(C)C)nn3-c3ccc4ncccc4c3)c(F)c2)ccn1 [Rebastinib, reference compound]
2.06
O=C(Nc1cccc(-c2c[nH]c3ncnc(N4CCOCC4)c23)c1)C1(C(=O)Nc2cccc3c2CCC3)CC1 [Compound 11]
-1.56

Please find the next compound below.
Look up dTm: CCSc1nc(NC)c2c(-c3cccc(NC(=O)Nc4cc(C(C)(C)C)nn4-c4ccc(C)cc4)c3)c[nH]c2n1 [Compound 32] 0.87

----------
Target Or System: ~100 representative kinases (Homo sapiens, UniProt Q96RR4)
Construct: Recombinant protein kinase domains with a concentration of 2 μM
Sequence (Q96RR4 whole entry, the tested form may be a part): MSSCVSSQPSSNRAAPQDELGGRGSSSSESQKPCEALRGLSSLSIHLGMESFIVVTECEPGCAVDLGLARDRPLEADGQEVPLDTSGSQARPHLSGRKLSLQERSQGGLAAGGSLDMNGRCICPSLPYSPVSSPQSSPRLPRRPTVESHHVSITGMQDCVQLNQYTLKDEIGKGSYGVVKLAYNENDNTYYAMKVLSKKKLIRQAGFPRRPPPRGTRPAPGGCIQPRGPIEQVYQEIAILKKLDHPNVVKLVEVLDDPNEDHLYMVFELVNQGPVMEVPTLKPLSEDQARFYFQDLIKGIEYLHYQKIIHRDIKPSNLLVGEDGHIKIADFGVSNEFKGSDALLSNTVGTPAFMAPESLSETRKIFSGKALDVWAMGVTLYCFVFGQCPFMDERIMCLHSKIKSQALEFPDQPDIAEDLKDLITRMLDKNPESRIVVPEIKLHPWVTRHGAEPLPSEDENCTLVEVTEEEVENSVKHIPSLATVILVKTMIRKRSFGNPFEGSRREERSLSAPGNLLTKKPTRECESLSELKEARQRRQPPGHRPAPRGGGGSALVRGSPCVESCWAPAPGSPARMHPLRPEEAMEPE
Method Notes: DSF 100 kinase selectivity screen;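 also: compound tested at 20 µM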
Format: binding
Reported Conditions: Protein CAMKK2; average of three replicates
Quick list: log10 dTm per entry.
// units: K (pre-log); metric: dTm; scale: log10

Sample answers from the record:
COc1cc(NC(=O)C2(C(=O)Nc3cccc(-c4c[nH]c5ncnc(N6CCOCC6)c45)c3)CC2)ccc1F
0.92
CC(C)(C)c1cc(NC(=O)Nc2cccc(-c3c[nH]c4ncnc(N5CCOCC5)c34)c2)n(-c2ccc3ncccc3c2)n1
1.09
Cc1ccc(C(=O)Nc2ccc(CN3CCN(C)CC3)c(C(F)(F)F)c2)cc1C#Cc1cnc2[nH]ncc2c1 [GZD-824, reference compound]
0.94
CNC(=O)c1cc(Oc2ccc(NC(=O)Nc3cc(C(C)(C)C)nn3-c3ccc4ncccc4c3)c(F)c2)ccn1 [Rebastinib, reference compound]
0.95
CCSc1nc(NC)c2c(-c3cccc(NC(=O)Nc4cc(C(C)(C)C)nn4-c4ccc(C)cc4)c3)c[nH]c2n1
0.39
Cc1ccc(NC(=O)C2(C(=O)Nc3cccc(-c4c[nH]c5ncnc(N6CCOCC6)c45)c3)CC2)cc1
0.69
Cc1cc(F)ccc1NC(=O)C1(C(=O)Nc2cccc(-c3c[nH]c4ncnc(N5CCOCC5)c34)c2)CC1
0.81
Cc1ccc(C(=O)Nc2ccc(CN3CCN(C)CC3)c(C(F)(F)F)c2)cc1C#Cc1c[nH]c2ncnc(N3CCOCC3)c12
1.03

Look up log10 dTm for this molecule: CCc1ccc(NC(=O)C2(C(=O)Nc3cccc(-c4c[nH]c5ncnc(N6CCOCC6)c45)c3)CC2)cc1 0.74

Another: O=C(Nc1ccc(Cl)cc1)C1(C(=O)Nc2cccc(-c3c[nH]c4ncnc(N5CCOCC5)c34)c2)CC1 0.89

What about O=C(Nc1cccc(-c2c[nH]c3ncnc(N4CCOCC4)c23)c1)C1(C(=O)Nc2ccc(F)cc2F)CC1 ? 0.73

Param item: C[C@@H]1CN(c2cc(-c3n[nH]c4ccc(OC5(C)CC5)cc34)ncn2)C[C@H](C)O1 0.94

// query: O=C(Nc1cccc(-c2c[nH]c3ncnc(N4CCOCC4)c23)c1)C1(C(=O)Nc2ccc(F)c(Br)c2)CC1 0.96

Another: O=C(Nc1cc(F)cc(Br)c1)C1(C(=O)Nc2cccc(-c3c[nH]c4ncnc(N5CCOCC5)c34)c2)CC1 0.56

Please answer likewise for O=C(Nc1ccccc1)C1(C(=O)Nc2cccc(-c3c[nH]c4ncnc(N5CCOCC5)c34)c2)CC1 0.71

What about Cn1cc(-c2c[nH]c3ncnc(N4CCOCC4)c23)cc1C#N ? 0.77

Also O=C(Nc1cccc(-c2c[nH]c3ncnc(N4CCOCC4)c23)c1)C1(C(=O)Nc2ccc(F)c(Cl)c2)CC1 , if possible. 0.98

Now try O=C(Nc1cccc(-c2c[nH]c3ncnc(N4CCOCC4)c23)c1)C1(C(=O)Nc2ccc(F)c(Br)c2F)CC1 . 0.74

Try O=C(Nc1cccc(-c2c[nH]c3ncnc(N4CCOCC4)c23)c1)C1(C(=O)Nc2cc(Br)c(F)cc2F)CC1 next. 0.80
